molecular target: PARP5bcat (Homo sapiens, UniProt Q9H2K2)
Sequence (Q9H2K2 959-1164): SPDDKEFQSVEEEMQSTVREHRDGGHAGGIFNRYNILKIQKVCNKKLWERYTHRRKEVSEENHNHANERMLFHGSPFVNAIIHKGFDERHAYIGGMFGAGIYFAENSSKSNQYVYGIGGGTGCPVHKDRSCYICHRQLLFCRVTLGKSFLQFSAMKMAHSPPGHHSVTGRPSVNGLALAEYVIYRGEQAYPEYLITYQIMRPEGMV
measured metric: IC50 (nM)
Use nM as the unit, but write only the number.

Please indicate IC50 recorded for N#Cc1ccc(N2CCN(C(=O)c3cc(Cc4n[nH]c(=O)c5ccccc45)ccc3F)CC2)nc1
2520

---

Biological target: PARP8FL (Homo sapiens, UniProt Q8N3A8)
Sequence (Q8N3A8 1-854): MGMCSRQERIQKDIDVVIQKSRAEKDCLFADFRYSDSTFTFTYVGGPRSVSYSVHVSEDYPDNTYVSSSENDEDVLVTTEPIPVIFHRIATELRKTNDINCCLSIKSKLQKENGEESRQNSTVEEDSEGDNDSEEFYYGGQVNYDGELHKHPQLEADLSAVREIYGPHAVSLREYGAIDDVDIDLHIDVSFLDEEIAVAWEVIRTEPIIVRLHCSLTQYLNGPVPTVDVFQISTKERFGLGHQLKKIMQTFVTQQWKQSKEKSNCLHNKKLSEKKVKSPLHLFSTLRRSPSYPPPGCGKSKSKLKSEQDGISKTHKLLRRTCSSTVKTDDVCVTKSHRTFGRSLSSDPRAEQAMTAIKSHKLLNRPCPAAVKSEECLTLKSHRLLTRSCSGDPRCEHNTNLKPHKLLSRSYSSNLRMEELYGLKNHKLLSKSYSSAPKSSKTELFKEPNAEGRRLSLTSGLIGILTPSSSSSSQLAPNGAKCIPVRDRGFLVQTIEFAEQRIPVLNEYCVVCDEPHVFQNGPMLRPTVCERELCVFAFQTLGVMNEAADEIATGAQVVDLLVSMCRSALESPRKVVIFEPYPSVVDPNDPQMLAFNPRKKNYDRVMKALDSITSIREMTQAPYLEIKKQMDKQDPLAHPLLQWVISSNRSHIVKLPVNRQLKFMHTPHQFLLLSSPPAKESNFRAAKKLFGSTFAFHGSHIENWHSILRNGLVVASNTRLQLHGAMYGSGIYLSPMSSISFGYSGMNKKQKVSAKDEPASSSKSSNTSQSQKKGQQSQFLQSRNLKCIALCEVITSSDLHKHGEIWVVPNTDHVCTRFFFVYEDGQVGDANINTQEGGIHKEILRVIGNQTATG
measured metric: IC50 (µM)
Give the value, in units of µM, as a plain number.

Recall the reported IC50 of N#Cc1ccc(N2CCN(C(=O)c3cc(Cc4n[nH]c(=O)c5ccccc45)ccc3F)CC2)nc1 when tested on PARP8FL (Homo sapiens, UniProt Q8N3A8).
4.7

---

target: PARP1FL (Homo sapiens, UniProt P09874)
Sequence (P09874 whole entry): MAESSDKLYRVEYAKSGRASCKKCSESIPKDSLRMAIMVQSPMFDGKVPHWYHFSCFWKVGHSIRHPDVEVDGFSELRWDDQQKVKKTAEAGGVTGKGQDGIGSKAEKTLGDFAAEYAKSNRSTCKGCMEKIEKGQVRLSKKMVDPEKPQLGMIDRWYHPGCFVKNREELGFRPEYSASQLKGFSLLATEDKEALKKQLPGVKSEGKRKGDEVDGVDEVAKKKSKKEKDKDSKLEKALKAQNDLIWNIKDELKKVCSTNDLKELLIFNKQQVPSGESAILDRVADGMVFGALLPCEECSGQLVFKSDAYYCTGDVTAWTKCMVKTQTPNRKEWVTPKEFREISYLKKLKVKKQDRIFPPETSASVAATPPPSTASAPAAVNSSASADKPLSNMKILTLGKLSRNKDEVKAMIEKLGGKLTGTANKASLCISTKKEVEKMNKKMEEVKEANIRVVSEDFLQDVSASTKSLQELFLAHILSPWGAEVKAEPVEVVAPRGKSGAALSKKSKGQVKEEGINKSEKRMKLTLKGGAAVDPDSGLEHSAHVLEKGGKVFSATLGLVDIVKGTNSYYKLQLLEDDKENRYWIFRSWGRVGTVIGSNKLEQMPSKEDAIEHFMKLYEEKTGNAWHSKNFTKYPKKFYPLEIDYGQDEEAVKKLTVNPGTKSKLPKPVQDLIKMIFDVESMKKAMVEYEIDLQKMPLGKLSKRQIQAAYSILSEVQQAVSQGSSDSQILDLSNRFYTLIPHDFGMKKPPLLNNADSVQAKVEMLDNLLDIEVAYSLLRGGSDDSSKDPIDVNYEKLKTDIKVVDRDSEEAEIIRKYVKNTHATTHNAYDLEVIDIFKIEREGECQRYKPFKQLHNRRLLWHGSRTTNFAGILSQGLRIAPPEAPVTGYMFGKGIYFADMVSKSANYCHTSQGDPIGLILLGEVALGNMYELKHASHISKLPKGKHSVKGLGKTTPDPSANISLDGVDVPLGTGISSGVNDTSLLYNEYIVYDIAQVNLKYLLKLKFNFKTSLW
measured metric: IC50 (nM)
Give the value in nM but do not write nM after it.

Lab note: PARP1FL (Homo sapiens, UniProt P09874) assay, enter IC50 for N#Cc1ccc(N2CCN(C(=O)c3cc(Cc4n[nH]c(=O)c5ccccc45)ccc3F)CC2)nc1 here
21

---

biological target: PARP15cat (Homo sapiens)
Sequence (Q460N3 482-678 limits assumed): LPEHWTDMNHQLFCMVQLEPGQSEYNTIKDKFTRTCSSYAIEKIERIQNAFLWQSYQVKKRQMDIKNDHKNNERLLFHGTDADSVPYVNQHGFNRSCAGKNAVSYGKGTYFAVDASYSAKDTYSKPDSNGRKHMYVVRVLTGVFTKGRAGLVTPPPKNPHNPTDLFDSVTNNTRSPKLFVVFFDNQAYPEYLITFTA
measured metric: IC50 (µM)
Provide the reading as a plain figure in µM.

Please respond with reported IC50 (system PARP15cat (Homo sapiens)) for N#Cc1ccc(N2CCN(C(=O)c3cc(Cc4n[nH]c(=O)c5ccccc45)ccc3F)CC2)nc1 .
2

---

target: PARP14wwe-cat. (Homo sapiens, UniProt Q460N5); experiment: ADP-ribosylation plate assay, PARP14wwe-cat.
Sequence (Q460N5 1523-1801 limits assumed): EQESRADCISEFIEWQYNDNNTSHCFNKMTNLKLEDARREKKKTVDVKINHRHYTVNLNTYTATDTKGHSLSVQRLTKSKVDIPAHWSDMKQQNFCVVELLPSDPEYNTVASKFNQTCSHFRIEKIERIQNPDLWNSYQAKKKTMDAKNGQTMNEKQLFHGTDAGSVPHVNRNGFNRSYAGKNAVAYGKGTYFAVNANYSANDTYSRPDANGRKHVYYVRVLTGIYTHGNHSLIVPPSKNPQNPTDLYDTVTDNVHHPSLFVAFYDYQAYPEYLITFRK
measured metric: IC50

State its IC50: N#Cc1ccc(N2CCN(C(=O)c3cc(Cc4n[nH]c(=O)c5ccccc45)ccc3F)CC2)nc1
> 10 µM
